Listing of recorded IC50 by entry.
# Tested on: Plasmodium falciparum clone CDC/Indochina III (W-2)
# ASSAY TEXT: In vitro antimalarial [3H]-hypoxanthine incorporation serial dilution assay, W2
# Type: cell-based
# RECORDED CONDITIONS: Plasmodium falciparum, W2, 72 h, P. falciparum W2, parasites exposed for 72 hours
Answer with a number only, understood to be in µg/mL.

IC50 recorded for this compound, CC[C@H]1OC(=O)[C@H](C)[C@@H](O[C@H]2C[C@@](C)(OC)[C@@H](O)[C@H](C)O2)[C@H](C)[C@@H](O[C@@H]2O[C@H](C)C[C@H](N(C)C)[C@H]2O)[C@](C)(O)C[C@@H](C)CN(CCCNC(=S)NCCCc2ccccc2)[C@H](C)[C@@H](O)[C@]1(C)O , is 0.112

Continuing:
IC50 recorded for this compound, CC[C@H]1OC(=O)[C@H](C)[C@@H](O[C@H]2C[C@@](C)(OC)[C@@H](O)[C@H](C)O2)[C@H](C)[C@@H](O[C@@H]2O[C@H](C)C[C@H](N(C)C)[C@H]2O)[C@](C)(O)C[C@@H](C)CN(CCCNC(=S)NCCc2ccccc2)[C@H](C)[C@@H](O)[C@]1(C)O , is 0.18

====

Listing of recorded IC50 by entry.
# System: Plasmodium falciparum clone CDC/Indochina III (W-2)
# ASSAY TEXT: In vitro antimalarial [3H]-hypoxanthine incorporation serial dilution assay, W2
# Format: cell-based
# RECORDED CONDITIONS: Plasmodium falciparum, W2, 72 h, P. falciparum W2, parasites exposed for 72 hours
Answer with a number only, understood to be in mg/L.

// compound CC[C@H]1OC(=O)[C@H](C)[C@@H](O[C@H]2C[C@@](C)(OC)[C@@H](O)[C@H](C)O2)[C@H](C)[C@@H](O[C@@H]2O[C@H](C)C[C@H](N(C)C)[C@H]2O)[C@](C)(O)C[C@@H](C)CN(CCCN(CCC#N)C(=S)NCc2ccccc2)[C@H](C)[C@@H](O)[C@]1(C)O [Compound 12] , assay Plasmodium falciparum clone CDC/Indochina III (W-2), IC50 value: 0.2

We now examine a further compound.
// compound CC[C@H]1OC(=O)[C@H](C)[C@@H](O)[C@H](C)[C@@H](O[C@@H]2O[C@H](C)C[C@H](N(C)C)[C@H]2O)[C@](C)(O)C[C@@H](C)CN(CCCNC(=S)Nc2cccc3ccccc23)[C@H](C)[C@@H](O)[C@]1(C)O [Compound 29] , assay Plasmodium falciparum clone CDC/Indochina III (W-2), IC50 value: 0.172

====

Listing of recorded IC50 by entry.
# Tested on: Plasmodium falciparum clone CDC/Indochina III (W-2)
# ASSAY TEXT: In vitro antimalarial [3H]-hypoxanthine incorporation serial dilution assay, W2
# Type: cell-based
# RECORDED CONDITIONS: Plasmodium falciparum, W2, 72 h, P. falciparum W2, parasites exposed for 72 hours
Answer with a number only, understood to be in µg/mL.

Example cases with answers are listed next.
IC50 recorded for this compound, CC[C@H]1OC(=O)[C@H](C)[C@@H](O[C@H]2C[C@@](C)(OC)[C@@H](O)[C@H](C)O2)[C@H](C)[C@@H](O[C@@H]2O[C@H](C)C[C@H](N(C)C)[C@H]2O)[C@](C)(O)C[C@@H](C)CN(CCCNC(=S)NCc2ccccc2)[C@H](C)[C@@H](O)[C@]1(C)O , is 0.18

IC50 recorded for this compound, CC[C@H]1OC(=O)[C@H](C)[C@@H](O[C@H]2C[C@@](C)(OC)[C@@H](O)[C@H](C)O2)[C@H](C)[C@@H](O[C@@H]2O[C@H](C)C[C@H](N(C)C)[C@H]2O)[C@](C)(O)C[C@@H](C)CN(CCCNC(=O)NCc2ccccc2)[C@H](C)[C@@H](O)[C@]1(C)O , is 0.351

We now examine a further compound.
IC50 recorded for this compound, CC[C@H]1OC(=O)[C@H](C)[C@@H](O[C@H]2C[C@@](C)(O)[C@@H](O)[C@H](C)O2)[C@H](C)[C@@H](O[C@@H]2O[C@H](C)C[C@H](N(C)C)[C@H]2O)[C@](C)(O)C[C@@H](C)CN(CCCNC(=O)Nc2cccc3ccccc23)[C@H](C)[C@@H](O)[C@]1(C)O , is 0.176
